Structures can show the parent of a compound that is named as a salt.
observed_property: melting point (°C)
Kindly answer with a numeric value in °C, unit omitted.

Query melting point for COC(=O)C(N)Cc1ccc(OC(=O)CCCN)c(OC(=O)CCCN)c1.Cl (centres unmarked)
185

Query melting point for CCCCOC(=O)C(Cc1ccc(O)c(O)c1)NC(=O)CCCN (centres unmarked) (as salt: hydrochloride)
77

Query melting point for COC(=O)C(Cc1ccc(OC(=O)CCCN)c(OC(=O)CCCN)c1)NC(=O)CCCN.Cl (centres unmarked)
87
